- STUDY TARGET: Hck (UniProt P08631)
- Sequence (P08631 whole entry, looked up): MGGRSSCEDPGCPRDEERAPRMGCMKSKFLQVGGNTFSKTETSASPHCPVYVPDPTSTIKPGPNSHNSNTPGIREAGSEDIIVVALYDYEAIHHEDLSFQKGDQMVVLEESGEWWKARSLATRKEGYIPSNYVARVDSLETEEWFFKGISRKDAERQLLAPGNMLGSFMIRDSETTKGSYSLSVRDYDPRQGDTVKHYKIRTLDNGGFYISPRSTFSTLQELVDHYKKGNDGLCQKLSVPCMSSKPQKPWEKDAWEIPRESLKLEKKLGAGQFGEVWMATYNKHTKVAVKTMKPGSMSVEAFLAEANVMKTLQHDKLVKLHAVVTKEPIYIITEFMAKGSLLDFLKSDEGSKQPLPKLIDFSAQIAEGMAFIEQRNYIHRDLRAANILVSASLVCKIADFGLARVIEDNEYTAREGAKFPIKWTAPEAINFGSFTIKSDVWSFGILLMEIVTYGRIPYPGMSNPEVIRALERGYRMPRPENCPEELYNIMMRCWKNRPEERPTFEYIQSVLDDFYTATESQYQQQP
- METHOD SUMMARY: phosphorylation enrichment, bacterial display (enrichment ratio); higher = better substrate or ligand; peptides without Tyr show the background;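 further: 11-residue human phosphosite peptides and single-mutation variants displayed on the E. coli surface, counted by deep sequencing, each peptide's frequency after selection divided by its frequency in the unselected input library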;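 further: frequency after pTyr selection over input frequency; kinase dosed for 20-30% of maximal phosphorylation in three min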
MEASUREMENT LABEL: phosphorylation enrichment
Answer with the value's number alone.

I have this sequence here, GSLEDYVRETN [GIMAP6_Y176] , and I need its recorded phosphorylation enrichment. 0.54

What phosphorylation enrichment value was documented for this sequence, IYRAAYFGVYD [SLC25A4_Y191] ? 5.56

# get_value(readout='phosphorylation enrichment', item= PQQLWYTHEKK [UBTF_Y207] ) 0.496

---
Which phosphorylation enrichment value is on record for LKLWDYSRGRC [WDR5B_Y239] ? 0.451

Please report the recorded phosphorylation enrichment for YKGKKYKPLDL [RPL35_Y78] . 0.404

Quick check: phosphorylation enrichment of RHRSGYVLIAM [EFR3A_Y73] ? 0.638

Query (sequence): PMWHPYKADVT [TP53TG5_Y255_V257A] ; field requested: phosphorylation enrichment 0.615

What value of phosphorylation enrichment has been reported for the following sequence? GVPLGYPIKAS [ELN_Y206_P211S] 0.404

Sample HRTLVYGGIFL [FBP1_Y259] — what was its phosphorylation enrichment? 3.69

Param item = DFFDLYGGEKL [PTPN11_Y66_F71L_YF] ; retrieve measured phosphorylation enrichment. 3.61

So what does the record say about phosphorylation enrichment for SQPASYQRRFL [PPIG_Y320_L324F] ? 0.492

GET /values?readout=phosphorylation enrichment&item= MARDIYRASYY [ALK_Y1278] 1.01

# get_value(readout='phosphorylation enrichment', item= RSDEDYLFREE [POR_Y573_YF] ) 0.983

Query: phosphorylation enrichment; subject: KASRKYYAMKI [AKT3_Y173_G171R] 0.339

----------
Recorded phosphorylation enrichment for the following sequences
- STUDY TARGET: Fyn (UniProt P06241)
- Sequence (P06241 whole entry, looked up): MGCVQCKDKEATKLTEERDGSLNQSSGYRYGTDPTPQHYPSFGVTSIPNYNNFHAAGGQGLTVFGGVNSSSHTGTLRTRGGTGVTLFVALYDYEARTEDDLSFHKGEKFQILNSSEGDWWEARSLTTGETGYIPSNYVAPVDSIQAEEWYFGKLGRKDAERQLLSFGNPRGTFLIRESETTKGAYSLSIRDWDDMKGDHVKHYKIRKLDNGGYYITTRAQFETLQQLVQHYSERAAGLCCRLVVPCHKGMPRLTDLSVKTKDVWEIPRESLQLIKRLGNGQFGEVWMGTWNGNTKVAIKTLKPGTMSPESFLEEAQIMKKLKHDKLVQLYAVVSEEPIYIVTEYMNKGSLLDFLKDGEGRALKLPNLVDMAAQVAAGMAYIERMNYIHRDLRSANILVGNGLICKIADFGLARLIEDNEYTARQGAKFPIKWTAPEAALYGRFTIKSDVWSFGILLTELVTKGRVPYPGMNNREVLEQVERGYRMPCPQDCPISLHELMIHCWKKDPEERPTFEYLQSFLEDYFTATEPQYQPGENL
- METHOD SUMMARY: phosphorylation enrichment, bacterial display (enrichment ratio); higher = better substrate or ligand; peptides without Tyr show the background
No unit in the answer, please; the number alone is enough.

Dear colleague, I am looking for the recorded phosphorylation enrichment of the following sequence: SNNFIYKTLGV [FAM83B_Y639_YF] 0.506

Item under review: MSSLPYMKVIF [SLC4A11_Y853_M856V] . Reported phosphorylation enrichment? 0.507

Value lookup for phosphorylation enrichment; key = YRQNVYIPGSN [PCDHGA1_Y895] 0.435

Param item = VFLGAYDRFLP [SLC22A5_Y486_YF] ; retrieve measured phosphorylation enrichment. 2.96

---
Query (sequence): KGERGYPGTLG [COL4A1_Y348_P352L] ; field requested: phosphorylation enrichment 0.392

Please look up its phosphorylation enrichment: WCSNDYLGMSQ [ALAS2_Y199_R204Q] 0.541

Entry IRYPPYTDWNQ [ALDH3B2_Y365_H361R] : reported phosphorylation enrichment = ? 0.468

Bench note: what phosphorylation enrichment did NPSYNYEIVNQ [DYNC1H1_Y3379_R3384Q] show? 0.463

// phosphorylation enrichment lookup, key: DDEENYENVPR [FCRL3_Y722] 0.555

Which phosphorylation enrichment is reported for this sequence? QEGPEYWDGET [HLA-A_Y83_Q86G] 0.712

Entry IDNKMYDPKMN [ENPP1_Y280] has what phosphorylation enrichment? 0.404
